Test system: cheatgrass
Test: Test B preemergence/postemergence greenhouse plant response rating 0 to 10
Assay type: in vivo, Bromus secalinus
Settings: Rate 200 g/ha, POSTEMERGENCE; 0 to 10 scale
Reported values of Plant response rating, Cheatgrass for individual entries

{"columns": ["Compound", "Measured Target", "Plant response rating, Cheatgrass"],
 "data": [
  ["C#CC(C)Oc1cc(-c2nn3c(c2Br)CCCC3)c(F)cc1Cl (centres unmarked)", "cheatgrass", 6],
  ["COCCOc1cc(-c2nn3c(c2Cl)CCCC3)c(Cl)cc1Cl", "cheatgrass", 6],
  ["COCOc1cc(-c2nn3c(c2Br)CCCC3)c(F)cc1Cl", "cheatgrass", 6],
  ["Oc1cc(-c2nn3c(c2Cl)CCCC3)c(Cl)cc1Cl", "cheatgrass", 3],
  ["C=CCOc1cc(-c2nn3c(c2Cl)CCCC3)c(Cl)cc1Cl", "cheatgrass", 6]
]}

###

Test system: crabgrass
Assay: Test B preemergence/postemergence greenhouse plant response rating 0 to 10
Format: in vivo, Digitaria spp.
Settings: POSTEMERGENCE, Rate 50 g/ha
Measured Endpoint: Plant response rating (0 to 10 scale), Crabgrass

{"columns": ["Smi", "Measured Result"],
 "data": [
  ["CCCN1C(=O)COc2cc(F)c(-c3nn4c(c3Cl)CCCC4)cc21", 5],
  ["COc1cc(-c2nn3c(c2Cl)CCCC3)c(F)cc1Cl", 4],
  ["CCS(=O)(=O)Oc1cc(-c2nn3c(c2Cl)CCCC3)c(F)cc1Cl", 3],
  ["CC(C)N1C(=O)COc2cc(F)c(-c3nn4c(c3Cl)CCCC4)cc21", 4],
  ["Fc1cc(Cl)c(OCc2ccccc2)cc1-c1nn2c(c1Cl)CCCC2", 3],
  ["CCCOc1cc(-c2nn3c(c2Cl)CCCC3)c(F)cc1Cl", 2]
]}

###

Test system: wild oat
Assay: Test C preemergence/postemergence greenhouse plant response rating 0 to 100
Type: in vivo, Avena fatua
Conditions: Rate 16 g/ha; POSTEMERGENCE
Measured Endpoint: Plant response rating (0 to 100), Wild oat

{"columns": ["Smi", "Measured Result"],
 "data": [
  ["CCN1C(=O)COc2cc(F)c(-c3nn4c(c3Cl)CCCC4)cc21", 40],
  ["Fc1cc(Cl)c(OCCCl)cc1-c1nn2c(c1Cl)CCCC2", 40],
  ["COCN1C(=O)COc2cc(F)c(-c3nn4c(c3Cl)CCCC4)cc21", 40],
  ["CC(C)Oc1cc(-c2nn3c(c2Br)CCCC3)c(F)cc1Cl", 30],
  ["COCN1C(=O)COc2cc(F)c(-c3nn4c(c3Br)CCCC4)cc21", 50],
  ["C=CCN1C(=O)COc2cc(F)c(-c3nn4c(c3Br)CCCC4)cc21", 20]
]}

###

System: barnyardgrass
Experiment: Test B preemergence/postemergence greenhouse plant response rating 0 to 10
Type: in vivo, Echinochloa crus-galli
Settings: PREEMERGENCE, Rate 10 g/ha; 0 to 10 scale

{"columns": ["Smi", "Measured Target", "Plant response rating, Barnyardgrass"],
 "data": [
  ["COCN1C(=O)COc2cc(F)c(-c3nn4c(c3Cl)CCCC4)cc21", "barnyardgrass", 0],
  ["C=CCN1C(=O)COc2cc(F)c(-c3nn4c(c3Cl)CCCC4)cc21", "barnyardgrass", 2],
  ["COCCN1C(=O)COc2cc(F)c(-c3nn4c(c3Cl)CCCC4)cc21", "barnyardgrass", 2],
  ["CCCCN1C(=O)COc2cc(F)c(-c3nn4c(c3Cl)CCCC4)cc21", "barnyardgrass", 0]
]}

###

Reported values of Plant response rating, Wild buckwheat for individual entries
Test system: wild buckwheat
Experiment: Test B preemergence/postemergence greenhouse plant response rating 0 to 10
Format: in vivo, Polygonum convolvulus
Conditions: PREEMERGENCE, Rate 50 g/ha; 0 to 10 scale

{"columns": ["Molecule", "Plant response rating, Wild buckwheat"],
 "data": [
  ["Clc1cc(Cl)c(-c2nn3c(c2Cl)CCCC3)cc1OCC1CC1 [Compound 69]", 0],
  ["CC(C)OC(=O)COc1cc(-c2nn3c(c2Cl)CCCC3)c(F)cc1Cl [Compound 39]", 10],
  ["CCC(C)Oc1cc(-c2nn3c(c2Cl)CCCC3)c(F)cc1Cl (stereo not drawn) [Compound 48]", 9],
  ["C#CCN1C(=O)COc2cc(F)c(-c3nn4c(c3Cl)CCCC4)cc21 [Compound 34]", 8],
  ["CCCN1C(=O)COc2cc(F)c(-c3nn4c(c3Cl)CCCC4)cc21 [Compound 32]", 8],
  ["C#CCOc1cc(-c2nn3c(c2Br)CCCC3)c(F)cc1Cl [Compound 26]", 7],
  ["Oc1cc(-c2nn3c(c2Cl)CCCC3)c(Cl)cc1Cl [Compound 68]", 0],
  ["CC(=O)c1cc(-c2nn3c(c2Cl)CCCC3)c(F)cc1Cl [Compound 45]", 3],
  ["Clc1ccc(-c2nn3c(c2Cl)CCCC3)c(Cl)c1 [Compound 35]", 0]
]}

###

Reported values of Plant response rating, Wheat for individual entries
Test system: wheat
Test: Test B preemergence/postemergence greenhouse plant response rating 0 to 10
Format: in vivo, Triticum aestivum
Details: POSTEMERGENCE, Rate 50 g/ha; 0 to 10 scale

{"columns": ["Smi", "Plant response rating, Wheat"],
 "data": [
  ["CCS(=O)(=O)Oc1cc(-c2nn3c(c2Cl)CCCC3)c(F)cc1Cl", 3],
  ["Clc1ccc(-c2nc3n(c2Br)CCCC3)c(Cl)c1", 1],
  ["Fc1cc(Cl)c(OCc2ccccc2)cc1-c1nn2c(c1Cl)CCCC2", 3],
  ["CCC(=O)Oc1cc(-c2nn3c(c2Cl)CCCC3)c(F)cc1Cl", 3],
  ["COCN1C(=O)COc2cc(F)c(-c3nn4c(c3Cl)CCCC4)cc21", 6],
  ["CCOCOc1cc(-c2nn3c(c2Cl)CCCC3)c(F)cc1Cl", 7],
  ["Clc1ccc(-c2nn3c(c2Cl)CCCC3)c(Cl)c1", 2],
  ["Fc1cc(Cl)c(OC2CCCC2)cc1-c1nn2c(c1Cl)CCCC2", 3],
  ["CC(C)COc1cc(-c2nn3c(c2Cl)CCCC3)c(F)cc1Cl", 4],
  ["Fc1cc(Cl)ccc1-c1nn2c(c1Br)CCCC2", 4]
]}

###

Reported values of Plant response rating, Bedstraw for individual entries
Test system: bedstraw
Assay: Test B preemergence/postemergence greenhouse plant response rating 0 to 10
Format: in vivo, Galium aparine
Conditions: POSTEMERGENCE, Rate 50 g/ha; 0 to 10 scale

{"columns": ["Molecule", "Plant response rating, Bedstraw"],
 "data": [
  ["COC(=O)c1cc(-c2nn3c(c2Cl)CCCC3)c(F)cc1Cl", 10],
  ["CCC(=O)Oc1cc(-c2nn3c(c2Cl)CCCC3)c(F)cc1Cl", 9],
  ["COCOc1cc(-c2nn3c(c2Br)CCCC3)c(F)cc1Cl", 10],
  ["C=CCN1C(=O)COc2cc(F)c(-c3nn4c(c3Br)CCCC4)cc21", 10],
  ["C#CC(C)Oc1cc(-c2nn3c(c2Cl)CCCC3)c(Cl)cc1Cl (stereo not drawn)", 8],
  ["COCCOc1cc(-c2nn3c(c2Cl)CCCC3)c(Cl)cc1Cl", 7],
  ["Fc1cc(Cl)ccc1-c1nn2c(c1Br)CCCC2", 10],
  ["C#CC(C)Oc1cc(-c2nn3c(c2Br)CCCC3)c(F)cc1Cl (stereo not drawn)", 10],
  ["CCCCN1C(=O)COc2cc(F)c(-c3nn4c(c3Cl)CCCC4)cc21", 9]
]}

###

Tested on: large crabgrass
Experiment: Test G preemergence/postemergence greenhouse plant response rating 0 to 100
Assay type: in vivo, Digitaria sanguinalis
Settings: PREEMERGENCE, Rate 250 g/ha, 0 to 100 scale
Measured Endpoint: Plant response rating, Large Crabgrass

{"columns": ["Smi", "Measured Endpoint", "Measured Result"],
 "data": [
  ["CC(C)COc1cc(-c2nn3c(c2Cl)CCCC3)c(F)cc1Cl", "Plant response rating, Large Crabgrass", 70],
  ["COc1cc(-c2nn3c(c2Cl)CCCC3)c(F)cc1Cl", "Plant response rating, Large Crabgrass", 100],
  ["C#CCN1C(=O)COc2cc(F)c(-c3nn4c(c3Cl)CCCC4)cc21", "Plant response rating, Large Crabgrass", 60],
  ["Fc1cc(Cl)c(OCc2ccccc2)cc1-c1nn2c(c1Cl)CCCC2", "Plant response rating, Large Crabgrass", 0],
  ["CCCN1C(=O)COc2cc(F)c(-c3nn4c(c3Cl)CCCC4)cc21", "Plant response rating, Large Crabgrass", 0],
  ["CCCOc1cc(-c2nn3c(c2Cl)CCCC3)c(F)cc1Cl", "Plant response rating, Large Crabgrass", 70],
  ["C=CCN1C(=O)COc2cc(F)c(-c3nn4c(c3Cl)CCCC4)cc21", "Plant response rating, Large Crabgrass", 0],
  ["CCS(=O)(=O)Oc1cc(-c2nn3c(c2Cl)CCCC3)c(F)cc1Cl", "Plant response rating, Large Crabgrass", 0],
  ["CC(C)N1C(=O)COc2cc(F)c(-c3nn4c(c3Cl)CCCC4)cc21", "Plant response rating, Large Crabgrass", 0]
]}
